These entries and their values trace back to paper PMC6588243.

- methodNotes: Toxicokinetics of PTA and PTB in plasma after intravenous administration of PTA
- Assay type: in vivo, Jersey heifers
- assayContext: female, Jersey, bovine, plasma, iv, 0.527 μmoles kg^-1, iv PTA 0.527 μmoles kg^-1, heifer no 4849, Experiment 1, plasma; read-out: λz terminal slope (converted)
- From the text: Two heifers (no’s 4848 and 4849) were used in a series of five experiments (Table 1) in a cross-over design including intravenous administration of pure PTA, oral administration of bracken extract and oral administration of dried bracken fern. […] Intravenous administration of PTA. […] Urine was collected quantitatively in urinary bags (Ratiomed GmBH, München, Germany) through a Foley catheter (Rusch Silasil no 16; Teleflex, Milan, Italy) inserted into the bladder. […]
readoutKind: k el (s⁻¹)
Return type: number; implicit unit s⁻¹.

input: k el lookup needed for "CC1=C[C@]2(O[C@@H]3O[C@H](CO)[C@@H](O)[C@H](O)[C@H]3O)C[C@@H](C)C(=O)[C@@H]2[C@](C)(O)C12CC2" , thanks.
output: 3.19e-05
